target: CDK7/CycH/MNAT1 (Homo sapiens (Human), UniProt P50613); assay: Biochemical assay for CDK7 (TR-FRET kinase assay); conditions: 10 μM compound; 60 min pre-incubation; 1 mM ATP; read-out: % inhibition @ 10 μM
Sequence (P50613 whole entry): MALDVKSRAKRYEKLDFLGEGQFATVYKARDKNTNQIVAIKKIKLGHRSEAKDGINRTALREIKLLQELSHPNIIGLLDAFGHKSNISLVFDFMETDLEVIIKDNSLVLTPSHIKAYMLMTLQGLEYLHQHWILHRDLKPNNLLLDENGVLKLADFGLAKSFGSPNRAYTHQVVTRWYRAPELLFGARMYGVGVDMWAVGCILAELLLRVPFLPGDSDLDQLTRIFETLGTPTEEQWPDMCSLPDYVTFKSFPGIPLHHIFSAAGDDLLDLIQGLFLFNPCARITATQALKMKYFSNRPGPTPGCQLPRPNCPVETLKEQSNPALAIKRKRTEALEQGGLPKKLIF
Sequence (P51946 whole entry partner): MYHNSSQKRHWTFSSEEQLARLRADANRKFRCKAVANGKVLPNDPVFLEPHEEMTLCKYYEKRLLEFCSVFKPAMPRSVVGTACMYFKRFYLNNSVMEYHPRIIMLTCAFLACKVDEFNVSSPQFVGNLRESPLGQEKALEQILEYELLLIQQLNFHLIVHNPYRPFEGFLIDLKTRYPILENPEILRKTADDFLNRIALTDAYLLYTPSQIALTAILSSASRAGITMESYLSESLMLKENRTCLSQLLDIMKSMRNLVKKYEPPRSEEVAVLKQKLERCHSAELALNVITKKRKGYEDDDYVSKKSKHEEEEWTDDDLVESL
Sequence (P51948 whole entry partner): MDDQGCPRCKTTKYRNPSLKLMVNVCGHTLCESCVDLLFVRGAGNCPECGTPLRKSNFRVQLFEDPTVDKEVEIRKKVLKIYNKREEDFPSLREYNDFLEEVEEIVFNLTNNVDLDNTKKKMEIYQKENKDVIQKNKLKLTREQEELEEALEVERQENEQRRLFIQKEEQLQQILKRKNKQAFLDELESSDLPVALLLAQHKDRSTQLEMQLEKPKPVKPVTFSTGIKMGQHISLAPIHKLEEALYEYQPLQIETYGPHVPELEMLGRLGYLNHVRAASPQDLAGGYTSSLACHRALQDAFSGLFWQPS
measured attribute: inhibition at 10 µM (%)
Write it as a number; the unit % goes unstated.

Query :: Identify measured inhibition at 10 µM corresponding to CCN1CCN(C/C=C/C(=O)Nc2cccc(CNc3nc(NC4CCOCC4)nc4c(C(C)C)cnn34)c2)CC1
Result :: 96

Query :: Identify measured inhibition at 10 µM corresponding to C=CC(=O)N1CC(C(=O)Nc2cccc(CNc3nc(NC4CCOCC4)nc4c(C(C)C)cnn34)c2)C1
Result :: 101

Query :: Identify measured inhibition at 10 µM corresponding to C=CC(=O)N1CCC(C(=O)Nc2cccc(CNc3nc(OC4CCN(C)CC4)nc4c(CC)cnn34)c2)CC1
Result :: 97

Query :: Identify measured inhibition at 10 µM corresponding to C=CS(=O)(=O)N1CCCCC1C(=O)Nc1cccc(CNc2nc(NC3CCOCC3)nc3c(C(C)C)cnn23)c1 (stereo not shown)
Result :: 100
